Target: Alpha-2A adrenergic receptor (Homo sapiens, UniProt P08913); further: assay procedure not described here
Sequence (P08913 whole entry): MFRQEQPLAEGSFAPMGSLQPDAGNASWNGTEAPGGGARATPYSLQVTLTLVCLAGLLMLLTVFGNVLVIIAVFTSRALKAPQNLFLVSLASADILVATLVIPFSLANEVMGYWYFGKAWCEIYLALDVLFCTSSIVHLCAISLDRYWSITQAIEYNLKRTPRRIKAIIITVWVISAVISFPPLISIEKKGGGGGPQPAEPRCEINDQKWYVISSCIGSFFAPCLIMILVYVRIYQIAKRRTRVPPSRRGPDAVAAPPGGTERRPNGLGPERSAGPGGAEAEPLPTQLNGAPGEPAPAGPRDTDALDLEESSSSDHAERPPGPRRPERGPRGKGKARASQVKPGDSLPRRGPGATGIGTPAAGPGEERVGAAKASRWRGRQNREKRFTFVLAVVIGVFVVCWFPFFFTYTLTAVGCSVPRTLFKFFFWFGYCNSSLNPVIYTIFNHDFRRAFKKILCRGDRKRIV
Type: functional, cell-based
AC50: recorded values

Write down AC50 measured for item CN(C)CCc1c[nH]c2ccc(CS(=O)(=O)N3CCCC3)cc12 [ALMOTRIPTAN] > 30 µM

---

Read-out record for UniProt Q9Y5N1: AC50
Sequence (Q9Y5N1 whole entry): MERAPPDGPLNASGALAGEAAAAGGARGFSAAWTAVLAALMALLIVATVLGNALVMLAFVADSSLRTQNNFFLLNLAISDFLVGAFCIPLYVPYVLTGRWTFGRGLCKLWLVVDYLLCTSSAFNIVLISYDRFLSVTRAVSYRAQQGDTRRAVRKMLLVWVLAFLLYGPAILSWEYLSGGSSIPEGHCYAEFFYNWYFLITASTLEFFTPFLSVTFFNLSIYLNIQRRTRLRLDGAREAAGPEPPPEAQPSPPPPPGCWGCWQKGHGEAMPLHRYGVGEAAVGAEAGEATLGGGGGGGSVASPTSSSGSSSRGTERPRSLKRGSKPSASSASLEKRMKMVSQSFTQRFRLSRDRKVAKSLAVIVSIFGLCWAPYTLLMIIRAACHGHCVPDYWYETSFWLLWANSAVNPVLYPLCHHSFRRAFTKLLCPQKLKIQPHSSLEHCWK

1) N=C(N)NCC1COc2ccccc2O1 (stereo not drawn) | > 30 µM
2) O=C(OOC(=O)c1ccccc1)c1ccccc1 [BENZOYL PEROXIDE] | > 30 µM
3) COc1cccc2c1C(=O)c1c(O)c3c(c(O)c1C2=O)C[C@@](O)(C(=O)CO)C[C@@H]3O[C@H]1C[C@H](N)[C@@H](O)[C@H](C)O1 [EPIRUBICIN] | > 30 µM
4) CC1=C(C/C=C(\C)CCC[C@H](C)CCC[C@H](C)CCCC(C)C)C(=O)c2ccccc2C1=O | > 30 µM
5) CN1CCc2c(c3ccccc3n2Cc2ccccc2)C1 [MEBHYDROLIN] | > 30 µM

Write down AC50 measured for item O=C1[C@@H]2[C@H]3CC[C@H](C3)[C@@H]2C(=O)N1C[C@@H]1CCCC[C@H]1CN1CCN(c2nsc3ccccc23)CC1 > 30 µM

Write down AC50 measured for item CC(O)(CC(=O)O)CC(=O)O > 30 µM

Write down AC50 measured for item CCOC1O[C@H]([C@@H](COCc2ccccc2)OCc2ccccc2)[C@H](OCc2ccccc2)[C@H]1O (stereo partly drawn) [TRIBENOSIDE] > 30 µM

---

Biological target: 5-hydroxytryptamine receptor 2C (Homo sapiens, UniProt P28335); further: assay procedure not described here
Sequence (P28335 whole entry): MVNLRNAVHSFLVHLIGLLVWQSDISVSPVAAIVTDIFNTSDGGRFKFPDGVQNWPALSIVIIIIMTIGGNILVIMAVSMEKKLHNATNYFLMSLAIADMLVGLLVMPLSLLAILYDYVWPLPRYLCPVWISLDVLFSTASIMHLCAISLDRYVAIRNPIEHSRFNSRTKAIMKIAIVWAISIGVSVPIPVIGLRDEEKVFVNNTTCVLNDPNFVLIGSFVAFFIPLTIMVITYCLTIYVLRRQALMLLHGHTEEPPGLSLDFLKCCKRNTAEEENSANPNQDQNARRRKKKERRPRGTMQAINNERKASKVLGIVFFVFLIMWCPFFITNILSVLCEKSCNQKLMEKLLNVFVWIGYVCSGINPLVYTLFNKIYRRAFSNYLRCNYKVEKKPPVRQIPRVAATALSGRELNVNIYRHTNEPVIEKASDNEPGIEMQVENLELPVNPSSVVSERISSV
Value Type: AC50

1) C[C@]12C=CC(=O)C=C1C(Cl)=C[C@@H]1[C@@H]2[C@@H](O)C[C@@]2(C)[C@H]1CC[C@]2(O)C(=O)CO [CLOPREDNOL] | 8.7 µM
2) O=C(O[C@H]1C[N+]2(CCCOc3ccccc3)CCC1CC2)C(O)(c1cccs1)c1cccs1 [ACLIDINIUM BROMIDE] | > 30 µM

Write down AC50 measured for item C[C@@H](Cc1ccccc1)N(C)Cc1ccccc1 [BENZPHETAMINE] > 30 µM

Write down AC50 measured for item CCOC(=O)Nc1ccc(NCc2ccc(F)cc2)nc1N [FLUPIRTINE] > 10 µM

Write down AC50 measured for item O=C(C[S+]([O-])Cc1ccco1)NC/C=C\COc1cc(CN2CCCCC2)ccn1 (configuration not stated) [LAFUTIDINE] > 30 µM
